Attribution: paper PMC9968717

- test-name: NLME/QSP model fit of plasma benazeprilat pharmacokinetics after oral benazepril
- Assay type: in vivo, dogs (beagles)
- condition-summary: beagle, dog, population estimate, beagles, read-out: Clearance rate of benazeprilat (ClI), fixed effect (converted)
- Protocol: The PK portion of the base model was a conventional 2-compartment mammillary model with saturable exchange between the central and peripheral compartments. Building on this initial model, several modifications of the PK structure were evaluated. […] As is typical, quantity of benazeprilat passed between compartments is called Im, n, for inhibitor, where indexes m and n represent origin and destination compartments, respectively. […] The benazepril dose was calculated to the nearest 1.25 mg increment. […]
recorded-metric: clearance (mL/min)
Answer format: numeric, mL/min implied, no suffix.

Ask: Item `O=C(O)CN1C(=O)[C@@H](N[C@@H](CCc2ccccc2)C(=O)O)CCc2ccccc21` has what recorded clearance?
Reply: 455
